- System: SW-620 colon
- protocol: NCI-60 one-dose screen, 48 h (100 = growth as untreated, 0 = no growth, -100 = all killed)
- condition description: 10 µM unless noted
The panel holds about 83,000 compounds, 20% with a hit somewhere; the sample as a whole holds those more often.
I'd appreciate it if you marked entries class 1 when growth is lower than 50% and class 0 when it is not.

Lookup: I'd appreciate it if you could check whether "CCCCCCCCOc1ccc(/C=N/Nc2cc(C)nc3ccc(Cl)cc23)cc1" has growth smaller than 50%.
Found: class 1

Lookup: Consider next the compound "O=C1Nc2ccccc2/C1=C\c1cccc(/C=C2/C(=O)Nc3ccccc32)n1" in the same way.
Found: class 1

Lookup: Consider next the compound "FC(F)(F)c1cccc(Nc2ccccc2)c1" in the same way.
Found: class 0

Lookup: Consider next the compound "Cc1cc(C)c(C=O)c(C)c1" in the same way.
Found: class 0

Lookup: Consider next the compound "O=C1CCCN1c1cccc2cccnc12" in the same way.
Found: class 0

Lookup: Consider next the compound "O=C1NC(=S)NC(=O)C1=Cc1cn(Cc2ccccn2)c2ccccc12" in the same way.
Found: class 1

Lookup: Consider next the compound "c1ccc(-c2nnc(Nc3ccc4c(c3)OCCO4)o2)c(NCc2ccncc2)c1" in the same way.
Found: class 1

Lookup: Consider next the compound "O=C(N/N=C/c1cccnc1)c1ccccc1Nc1cccc(C(F)(F)F)c1" in the same way.
Found: class 0

Lookup: Consider next the compound "COc1cc2nc(-c3ccc(C(F)(F)F)cc3)cc(OCCN3CCCC3)c2cc1OC" in the same way.
Found: class 0

Lookup: Consider next the compound "Cn1ncc2c(Nc3ccccc3Cl)nc(Cl)nc21" in the same way.
Found: class 0

Lookup: Consider next the compound "c1ccc(Cn2nc3c(c2-c2ccccc2)-c2oncc2CC3)cc1" in the same way.
Found: class 0

Lookup: Consider next the compound "CCc1c(Nc2ccc(C)cc2)[nH]c(N)nc1=S" in the same way.
Found: class 0

Lookup: Consider next the compound "Cc1cn(-c2cc(C(=O)Nc3cccc(C#Cc4cccc5[nH]nc(N)c45)c3)cc(C(F)(F)F)c2)cn1" in the same way.
Found: class 1

Lookup: Consider next the compound COc1ccc(C2CC(c3cccc(Nc4ccncc4)c3)=NN2c2cc(Cl)cc(Cl)c2)cc1 (configuration not stated) in the same way.
Found: class 1

Lookup: Consider next the compound "O=C1c2cccnc2C(=O)c2nc3cc(N4CCN(C5CC5)CC4)ccc3nc21" in the same way.
Found: class 1

Lookup: Consider next the compound Fc1ccc(C2CC(c3cccc(Nc4ccncc4)c3)=NN2c2ccc(Cl)cc2)cc1 (configuration not stated) in the same way.
Found: class 1

Lookup: Consider next the compound "COc1ccccc1OCC(=O)N1CCCCCC1" in the same way.
Found: class 0

Lookup: Consider next the compound "C=C(C)[C@@H]1CC[C@]2(CO)CC[C@]3(C)[C@H](CC[C@@H]4[C@@]5(C)CCCNC(C)(C)[C@@H]5CC[C@]43C)[C@@H]12" in the same way.
Found: class 1

Lookup: Consider next the compound "CCOC(=O)N1CCN(CCCCl)CC1" in the same way.
Found: class 0

Lookup: Consider next the compound "Cc1c(C(=O)NO)sc2ncnc(Nc3ccc(NC(=S)Nc4ccccc4)cc3)c12" in the same way.
Found: class 0

Lookup: Consider next the compound CN1C(=O)N(C)C2NC(N/N=C/c3ccccc3)=NC21 (configuration not stated) in the same way.
Found: class 0

Lookup: Consider next the compound "COc1cc(OC)c(/C=C/C(=O)c2ccc(Nc3ncnc4ccccc34)cc2)c(OC)c1" in the same way.
Found: class 1
